- SYSTEM_TESTED: HLA-A*32:01
- PROCEDURE_DETAILS: IEDB peptide-MHC binding, purified MHC/competitive/radioactivity; filed as Kd, often an IC50 or EC50 that approximates it; bounds were set here for any values at or beyond the usual limits of such assays
- APPLIED_CONDITIONS: source organism: Vaccinia virus WR
PARAMETER: log10(Kd) (log10 of the value in nM)

>>> observed_measurement("SKYAGINIL")
4.21
>>> observed_measurement("TVIFQTVVI")
2.76
>>> observed_measurement("KVREHTFVK")
2.17
>>> observed_measurement("HIIIVALTI")
1.90
>>> observed_measurement("KINEVVEIF")
1.29
>>> observed_measurement("IILVIIVVI")
2.62
>>> observed_measurement("SIYGFGVTF")
-0.95
>>> observed_measurement("MTMKMMVHI")
0.68
>>> observed_measurement("VMVTSKPLF")
4.26

---

- SYSTEM_TESTED: HLA-B*40:02
- PROCEDURE_DETAILS: IEDB peptide-MHC binding, purified MHC/competitive/radioactivity; filed as Kd, often an IC50 or EC50 that approximates it; bounds were set here for any values at or beyond the usual limits of such assays
- APPLIED_CONDITIONS: source organism: Mammarenavirus choriomeningitidis
PARAMETER: Kd (nM)

>>> observed_measurement("FEDQFLPFMS")
312

---

- SYSTEM_TESTED: HLA-B*44:03
- PROCEDURE_DETAILS: IEDB peptide-MHC binding, purified MHC/competitive/radioactivity; filed as Kd, often an IC50 or EC50 that approximates it; bounds were set here for any values at or beyond the usual limits of such assays
- APPLIED_CONDITIONS: source organism: Dengue virus 1 Brazil/97-11/1997
Kd for assorted sequences
PARAMETER: Kd (nM)

>>> observed_measurement("RETACLGKSY")
70.3
>>> observed_measurement("MEDKTHVSSW")
111
>>> observed_measurement("GEKALKLSWF")
135
>>> observed_measurement("TEAKMLLDNI")
617

---

- SYSTEM_TESTED: HLA-A*11:01
- PROCEDURE_DETAILS: IEDB peptide-MHC binding, purified MHC/direct/fluorescence; filed as Kd, often an IC50 or EC50 that approximates it; bounds were set here for any values at or beyond the usual limits of such assays
- APPLIED_CONDITIONS: source organism: Coxiella burnetii
PARAMETER: Kd

>>> observed_measurement("WAPEGDIRL")
"≥ 20 µM"
>>> observed_measurement("YYYNFSEDL")
"≥ 20 µM"

---

pKd for assorted sequences
- SYSTEM_TESTED: HLA-B*51:01
- PROCEDURE_DETAILS: IEDB peptide-MHC binding, purified MHC/competitive/fluorescence; filed as Kd, often an IC50 or EC50 that approximates it; bounds were set here for any values at or beyond the usual limits of such assays
- APPLIED_CONDITIONS: source organism: Kurkino virus
pKd: −log10 of the molar value.
PARAMETER: pKd

>>> observed_measurement("LPTRCRLEI")
"≤ 4.70"
>>> observed_measurement("SPGDNSAKF")
"≤ 4.70"

---

- SYSTEM_TESTED: HLA-A*26:03
- PROCEDURE_DETAILS: IEDB peptide-MHC binding, purified MHC/competitive/fluorescence; filed as Kd, often an IC50 or EC50 that approximates it; bounds were set here for any values at or beyond the usual limits of such assays
- APPLIED_CONDITIONS: source organism: Mycobacterium tuberculosis H37Ra
pKd: −log10 of the molar value.
PARAMETER: pKd

>>> observed_measurement("AVYLLDGLR")
6.49

Numbers sourced from the Immune Epitope Database (IEDB).
